Measured residual activity values are reported for all entries that follow.
Biological target: Polyunsaturated fatty acid 5-lipoxygenase (Homo sapiens) (UniProt P09917)
Sequence (P09917 whole entry): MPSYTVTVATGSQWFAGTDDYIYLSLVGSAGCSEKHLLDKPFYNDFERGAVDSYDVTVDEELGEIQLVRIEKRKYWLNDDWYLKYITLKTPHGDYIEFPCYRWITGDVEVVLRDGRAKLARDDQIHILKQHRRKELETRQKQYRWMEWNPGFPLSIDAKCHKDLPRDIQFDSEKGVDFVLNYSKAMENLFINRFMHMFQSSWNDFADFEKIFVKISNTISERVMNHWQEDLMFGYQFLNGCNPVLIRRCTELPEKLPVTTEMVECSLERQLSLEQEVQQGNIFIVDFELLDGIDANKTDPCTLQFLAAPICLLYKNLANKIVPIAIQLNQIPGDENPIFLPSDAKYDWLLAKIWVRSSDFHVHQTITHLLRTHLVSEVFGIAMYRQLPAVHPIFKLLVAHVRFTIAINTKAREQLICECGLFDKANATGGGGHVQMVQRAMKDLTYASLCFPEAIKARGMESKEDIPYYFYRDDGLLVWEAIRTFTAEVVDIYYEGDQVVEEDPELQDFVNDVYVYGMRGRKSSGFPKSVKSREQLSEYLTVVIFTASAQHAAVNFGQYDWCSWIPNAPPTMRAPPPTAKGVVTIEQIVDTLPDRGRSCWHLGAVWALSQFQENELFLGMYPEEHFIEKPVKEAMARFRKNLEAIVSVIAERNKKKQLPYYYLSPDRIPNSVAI
Experiment: Inhibition of 5-LO in human neutrophils assessed as product formation at 3 uM by cell-intact assay relative to control in presence of 2.5 uM A23187 ionophore; values are per cent of control

chemical.string: O=C1Nc2cc(Br)ccc2/C1=C1/Nc2ccccc2/C1=N\OCCN1CCNCC1
unit.of.measurement: %
residual activity: 64.7
//
chemical.string: O=C1Nc2c(F)cccc2/C1=C1/Nc2ccccc2/C1=N\O
unit.of.measurement: %
residual activity: 50.4
//
chemical.string: O=C1Nc2cc(Br)ccc2/C1=C1/Nc2ccccc2/C1=N\O
unit.of.measurement: %
residual activity: 38
//
chemical.string: O=Nc1c(-c2c(O)[nH]c3ccccc23)[nH]c2cc(Br)ccc12
unit.of.measurement: %
residual activity: 111
//
chemical.string: CC(=O)O/N=C1/C(=C2/C(=O)Nc3c(Br)cccc32)Nc2ccccc21
unit.of.measurement: %
residual activity: 112

The values you see were collected from ChEMBL document CHEMBL3259773.
